Sequence of the target: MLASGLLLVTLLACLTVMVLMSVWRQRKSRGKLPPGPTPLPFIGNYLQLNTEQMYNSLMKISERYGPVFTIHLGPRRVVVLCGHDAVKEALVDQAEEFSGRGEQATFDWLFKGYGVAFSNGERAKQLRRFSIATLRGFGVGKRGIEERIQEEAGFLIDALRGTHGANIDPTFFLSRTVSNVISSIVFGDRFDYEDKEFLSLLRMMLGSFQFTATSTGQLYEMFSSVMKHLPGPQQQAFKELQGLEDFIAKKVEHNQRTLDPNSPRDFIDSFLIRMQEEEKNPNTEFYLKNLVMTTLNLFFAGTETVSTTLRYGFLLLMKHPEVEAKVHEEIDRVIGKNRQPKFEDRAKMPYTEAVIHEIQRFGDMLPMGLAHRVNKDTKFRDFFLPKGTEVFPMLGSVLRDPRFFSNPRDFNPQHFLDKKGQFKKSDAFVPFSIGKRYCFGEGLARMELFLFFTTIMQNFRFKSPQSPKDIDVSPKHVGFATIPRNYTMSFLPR
pIC50: −log10 of the molar value.
Parameter threshold = 4. Response is T when pIC50 meets or exceeds it, else F.

Solved entries (count: 4):
[
  {
    "COMPOUND": "CC(C)=CCC/C(C)=C\\Cn1ccnc1",
    "CAT": "T"
  },
  {
    "COMPOUND": "CCCCCn1ccnc1",
    "CAT": "T"
  },
  {
    "COMPOUND": "C=CCCCCn1ccnc1",
    "CAT": "T"
  },
  {
    "COMPOUND": "CC#CCn1ccnc1",
    "CAT": "F"
  }
]

hey, is pIC50 for this one >= 4? "CCCCCCCCCc1ncc[nH]1" F

hey, is pIC50 for this one >= 4? "OCCCCCn1ccnc1" F

hey, is pIC50 for this one >= 4? CC(C)=CCCC(C)Cc1ncc[nH]1 (stereo not given) F

hey, is pIC50 for this one >= 4? "CCCCn1ccnc1" T

hey, is pIC50 for this one >= 4? "C=Cn1ccnc1" F

hey, is pIC50 for this one >= 4? "COc1ccc(-c2ncco2)cc1" T
